assay: folding enthalpy; higher = less favourable; fluorescence melt of hairpins on a sequencing array, two-state fit; settings: sodium 0.088 M
Result type: folding enthalpy (kcal/mol)
API: value field is a number in kcal/mol; no unit string.

Problem: Entry GCACGGCGAAAGCCATGC (((.(((....))).))) : reported folding enthalpy = ?
Solution: -36

Problem: I'd like to know its folding enthalpy. The sequence in question is GATCACCTAGTGATC ((((((...))))))
Solution: -34.8

Problem: Which folding enthalpy is reported for this sequence? GCTAGGCGAAAGCCCGGC ((..(((....)))..))
Solution: -16.9

Problem: Data request, read-out folding enthalpy, for GTGGCCGGAAACGACCAC ((((.((....)).))))
Solution: -40.3

Problem: Query (sequence): GATCACCCTCGTGATC ((((((....)))))) ; field requested: folding enthalpy
Solution: -43.6

Problem: Query: folding enthalpy; subject: GGAGCCGGAAACGGCCCC ((.((((....)))).))
Solution: -15.5

###

For each entry below, report its folding enthalpy value.
assay: folding enthalpy; higher = less favourable; fluorescence melt of hairpins on a sequencing array, two-state fit; conditions: sodium 0.088 M
Response body: numeric value in kcal/mol, unit text excluded.

Problem: # folding enthalpy lookup, item GGTTTCCCGAAAGGGACC (((..(((....))))))
Solution: -12.3

Problem: Any idea what its folding enthalpy is? The sequence is GCGATTAATCGC ((((....))))
Solution: -29.4

Problem: Tell me the measured folding enthalpy of GCTTCGCGAAAGCTAAGC ((((.((....)).)))) , please.
Solution: -20.5

Problem: folding enthalpy lookup needed for GGTCGAGAAATCGACC ((((((....)))))) , thanks.
Solution: -40

Problem: For the sequence shown here, CCAGGGAAACCTGG (((((....))))) , give the reported folding enthalpy.
Solution: -20.6

Problem: What value of folding enthalpy has been recorded for this entry: GTACAAGGAAACTCGTAC ((((.((....)).))))
Solution: -22

Problem: May I ask what folding enthalpy has been recorded for GATCGCGGGTGCGATC ((((((....)))))) ?
Solution: -34.5

Problem: If you can, please state the reported folding enthalpy value of GGTTACGAAAGTAACC ((((((....)))))) .
Solution: -34.7

Problem: # lookup: folding enthalpy of GGGGTCCGAAAGGATCCC (((.(((....))).)))
Solution: -36

Problem: Using the record for GTGCAGGGAAACCTGTAC ((.((((....)))).)) , report its folding enthalpy.
Solution: -36.1

Problem: So what does the record say about folding enthalpy for GTACTTCGAAAGAATTAC (((.(((....))).))) ?
Solution: -18.6

Problem: # input sequence: GTTGGTGAAAACCAAC ((((((....)))))) ; wanted: its folding enthalpy
Solution: -37

Problem: For the sequence CGGGACGGAAACGTTCCG (((.(((....))).))) , what folding enthalpy is on record?
Solution: -37.8

Problem: Item GATTATGGAAACATAGTC ((.((((....)))).)) has what recorded folding enthalpy?
Solution: -16.8

Problem: GET /values?readout=folding enthalpy&item= GTCAACGAAAGTTGGAC ((((((....))).)))
Solution: -13.2

Problem: Could you tell me which folding enthalpy is on file for GGTCCCGAAAGGGATACC ((((((....)))..))) ?
Solution: -12.9

Problem: # get_value(readout='folding enthalpy', item= GACAAAACGAAAGTTGTC (((..(((....)))))) )
Solution: -24.8

Problem: Value lookup for folding enthalpy; key = CGAAATCGGAAACGATCG (((..(((....))))))
Solution: -22.6

Problem: Quick check: folding enthalpy of GAACCTGGAAACGGGTTC (((((.(....).))))) ?
Solution: -39.3

Problem: Report folding enthalpy for GATCACGGAAACGTAATC (((.(((....))).))) please.
Solution: -20.3

Problem: Looking for the measured folding enthalpy of GATCTATCATAGATC ((((((...)))))) , can you help?
Solution: -28

Problem: // query folding enthalpy value for entry GCGAGCGATCGC ((((....))))
Solution: -25.3

Problem: Could you share which folding enthalpy value was measured for GCCTGCGAAAGCAGCGGC ((((((....)))..))) ?
Solution: -14

Problem: Would you mind telling me what folding enthalpy value was observed for GCGGGTTGCCGC ((((....)))) ?
Solution: -19.8

Problem: Which value of folding enthalpy has been reported for GATCAGAGGGCTGATC ((((((....)))))) in the records?
Solution: -39.2

Problem: Fill in: folding enthalpy of GGGCTGCGAAAGCAACCC (((.(((....))).))) is ___
Solution: -38.9

Problem: Entry GCAATGCGAAAGCCGTGC (((..((....))..))) has what folding enthalpy?
Solution: -20.4

Problem: Which folding enthalpy reading was recorded for the sequence CGCGGACGTTTCCGCG ((((((....)))))) ?
Solution: -31.9

Problem: Value lookup for folding enthalpy; key = GGTCAGCGAAAGCTTACC (((.(((....))).)))
Solution: -31.8

Problem: So what does the record say about folding enthalpy for GATCCGCATTCGGATC ((((((....)))))) ?
Solution: -36.1

Problem: What folding enthalpy value was documented for this sequence, GGTTAGGGAAACTTAACC (((((.(....).))))) ?
Solution: -25.1

Problem: Could you share which folding enthalpy value was measured for GGATCACGAAAGTGGTCC (((.(((....))).))) ?
Solution: -33.7

Problem: Report folding enthalpy for GGATTCGAAAGAACTTCC ((((((....)))..))) please.
Solution: -8.73

Problem: Which folding enthalpy is listed for GACGGCGAAAGCCCTGTC ((((((....)))..))) ?
Solution: -13.6

Problem: What value of measured folding enthalpy is listed for GACGTGCGAAAGCAAGTC (((.(((....))).))) ?
Solution: -31.5

Problem: What measured folding enthalpy goes with GGATGAGCGAAAGCTTCC (((..(((....)))))) ?
Solution: -11.4

Problem: May I ask what folding enthalpy has been recorded for GCGTTGAAAAACGC (((((....))))) ?
Solution: -30.2

Problem: Report folding enthalpy for GCACAGCGAAAGCAGGGC ((.(.((....)).).)) please.
Solution: -25.8

Problem: Requested read-out: folding enthalpy. Entry: GGAACAACGAAAGTTTCC (((..(((....))))))
Solution: -15.5

Problem: Item GATCCGGCGGCGGATC ((((((....)))))) has what recorded folding enthalpy?
Solution: -41.5

Problem: Data request, read-out folding enthalpy, for GTGAGTACGAAAGTACAC (((..(((....))))))
Solution: -16.3

Problem: Any idea what its folding enthalpy is? The sequence is GATCGAAATGTCGATC ((((((....))))))
Solution: -36.8

Problem: Param item = GGAGTAGGAAACTATTCC (((.(((....))).))) ; retrieve measured folding enthalpy.
Solution: -21.4

Problem: Name the recorded folding enthalpy for GCTTCGGGAAACTGAAGC (((((.(....).))))) .
Solution: -41.3

Problem: Quick check: folding enthalpy of GCACCCGGAAACGAGCGC ((.(.((....)).).)) ?
Solution: -29.2

Problem: Form field: reported folding enthalpy of GCGTCGGGAAACCAACGC ((((.((....)).))))
Solution: -41.5

Problem: Using the record for GTCGACGGAAACGTCAAC ((.((((....)))).)) , report its folding enthalpy.
Solution: -15.6

Problem: Consider the sequence shown here: AACGGGAAACCGTT (((((....))))) What is its recorded folding enthalpy?
Solution: -18.5

Problem: Record request: folding enthalpy value, item GATCGGGGTGCCGATC ((((((....))))))
Solution: -52.3

Problem: Recorded folding enthalpy for GCCACCGAAAGGTGCGGC ((((((....)))..))) , please?
Solution: -13.1

Problem: Sample GGCTGACCGAAAGGTGCC (((..(((....)))))) — what was its folding enthalpy?
Solution: -24.7
